Provenance of the data: ChEMBL document CHEMBL1123124

Test system: Rattus norvegicus
Experiment: In vivo antihistaminic activity using compound 48/80 induced lethality test in rat after 2 hr of oral administration
Format: functional
Task for the reader: assign each of the following compounds its reported ED50.
// note: answer is a bare numeric in mg/kg

Recorded ED50 of `O=C(Cc1ccccc1)Oc1ccc(CCN2CCC(Nc3nc4ccccc4n3Cc3ccc(F)cc3)CC2)cc1` , please.
0.08

Repeat for the following compound: `Cl.Fc1ccc(Cn2c(NC3CCN(CCc4ccccc4)CC3)nc3ccccc32)cc1`
0.63

Repeat for the following compound: COc1ccccc1OCC(O)CN1CCC(Nc2nc3ccccc3n2Cc2ccc(F)cc2)CC1 (stereo not given)
0.63

Repeat for the following compound: CC(=O)c1ccc(OCC(O)CN2CCC(Nc3nc4ccccc4n3Cc3ccc(F)cc3)CC2)cc1 (stereo not given)
1.25

Repeat for the following compound: `Fc1ccc(Cn2c(NC3CCN(CCc4cccc5ccccc45)CC3)nc3ccccc32)cc1`
0.63
